- Tested on: Cabbage Looper [Trichoplusia ni (Hubner)]
- ASSAY_PROTOCOL: Cabbage looper insecticidal test
- Type: in vivo
- CONDITION_SUMMARY: second-instar larvae, percent in solution; 3-5 days
- Experimental: The compounds in Tables 1 and 2 above were tested for insecticidal activity using the following testing procedures. LC50 values, based on the results of these tests and calculated according to dosage-mortality curves, are expressed in Table 3. Cabbage Looper [Trichoplusia ni (Hubner)]: Test compounds were diluted in a 50-50 acetone-water solution. […] Mortality of the larvae was recorded 3-5 days later. […]
REPORTED_METRIC: LC50, CL (%)
Your answer is read as %, so omit the unit and give the number.

// recorded LC50, CL for CC(C)C(=Nc1ccc2c(c1)OCCO2)OCc1cccc(Oc2ccccc2)c1 [Compound 179] : 0.004

// recorded LC50, CL for CCc1ccc(N=C(OCc2ccc(F)c(Oc3ccc(F)cc3)c2)C(C)C)cc1 [Compound 361] : 0.001

// recorded LC50, CL for CC1(C(=Nc2ccc(Cl)cc2)OCc2cccc(Oc3ccccc3)c2)CC1 [Compound 5] : 0.005

// recorded LC50, CL for CC(C)(C)C(=Nc1cccc(Br)c1)OCc1cccc(Oc2ccccc2)c1 [Compound 134] : 0.015

// recorded LC50, CL for CC(C)C(=Nc1ccc2c(c1)OCO2)OCc1ccc(F)c(Oc2ccccc2)c1 [Compound 181] : 0.0005

// recorded LC50, CL for Cc1ccc(Oc2cccc(COC(=Nc3ccc(C(C)(C)C)cc3)C(C)C)c2)cc1 [Compound 344] : 0.024

// recorded LC50, CL for CCC(=Nc1ccc(F)c(Cl)c1)OCc1cccc(Oc2ccc(F)cc2)c1 [Compound 115] : 0.0012

###

- System: Maize weevil [Sitophilus Zeamais (Motschulsky)]
- ASSAY_PROTOCOL: Maize weevil insecticidal test
- Assay type: in vivo
- CONDITION_SUMMARY: adult weevils, percent in solution; 48 hours
REPORTED_METRIC: LC50, MW

// recorded LC50, MW for c1ccc(Oc2cccc(COC(=Nc3ccc4c(c3)OCO4)C3CC3)c2)cc1 [Compound 177] : 0.01%

// recorded LC50, MW for CCOc1ccc(N=C(OCc2ccc(F)c(Oc3ccccc3)c2)C(C)C)cc1F [Compound 439] : > 0.01%

// recorded LC50, MW for Cc1ccc(N=C(OCc2cccc(Oc3ccc(Cl)cc3)c2)C(C)C)cc1Cl [Compound 403] : > 0.01%

// recorded LC50, MW for CC(C)C(=Nc1ccc(F)c(Br)c1)OCc1cccc(Oc2ccccc2)n1 [Compound 558] : > 0.01%

// recorded LC50, MW for CC(Cl)C(=Nc1ccc(Cl)cc1)OCc1cccc(Oc2ccccc2)c1 (centres unmarked) [Compound 33] : > 0.01%

// recorded LC50, MW for CC(C)C(=Nc1ccc(F)c(C(F)(F)F)c1)OCc1ccc(F)c(Oc2ccc(Cl)cc2)c1 [Compound 297] : 0.0071%

// recorded LC50, MW for CC(C)C(=Nc1ccc(OCC(F)(F)F)c(Cl)c1)OCc1cccc(Oc2ccc(Cl)cc2)c1 [Compound 421] : > 0.01%

// recorded LC50, MW for CC(C)C(=Nc1c(F)c(F)cc(F)c1F)OCc1cccc(Oc2ccc(F)cc2)c1 [Compound 304] : > 0.01%
